Hello, the source for this data is PubChem BioAssay AID2060901, in case you need it.

Recorded viability, T/C, one value per entry.
- Tested on: 422866-222-R5-J1-PDC complex spheroids viability;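 note: spheroids exposed to compounds for 7 days; 100% = DMSO vehicle control viability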
- Experimental Details: Anticancer human tumor 422866-222-R5-J1-PDC patient-derived pancreatic adenocarcinoma cell line growth inhibition [RAS]
- Experimental Setup: second compound 0.3 µM; first compound 0.316 µM; hits give low values
Answer format: numeric, % implied, no suffix.

CC(C)NCC(C(=O)N1CCN(c2ncnc3c2C(C)CC3O)CC1)c1ccc(Cl)cc1 (stereo not drawn) + CCn1c(-c2cccnc2C(C)OC)c2c3cc(ccc31)N1CCOC(CC(NC(=O)C(C(C)C)N(C)C(=O)C3(F)CCN(C(=O)C#CC(C)(C)N(C)C)CC3)C(=O)N3CCCC(N3)C(=O)OCC(C)(C)C2)C1; 11.3
NC1c2ccccc2OC12CCN(c1cnc3c(N4CCCc5ncccc54)n[nH]c3n1)CC2 (stereo not drawn) + CCn1c(-c2cc(N3CCN(C)CC3)cnc2C(C)OC)c2c3cc(ccc31)-c1csc(n1)CC(NC(=O)C1CC1C)C(=O)N1CCCC(N1)C(=O)OCC(C)(C)C2; 20.5
CCC(CC)c1cc(NC2CCC(N)C2)n2nccc2n1 (stereo not drawn) + CCn1c(-c2cccnc2C(C)OC)c2c3cc(ccc31)N1CCOC(CC(NC(=O)C(C(C)C)N(C)C(=O)C3(F)CCN(C(=O)C#CC(C)(C)N(C)C)CC3)C(=O)N3CCCC(N3)C(=O)OCC(C)(C)C2)C1; 20.7
Nc1ccn(C2OC(CO)C(O)C2(F)F)c(=O)n1 (stereo not drawn) + CCn1c(-c2cc(N3CCN(C)CC3)cnc2C(C)OC)c2c3cc(ccc31)-c1csc(n1)CC(NC(=O)C1CC1C)C(=O)N1CCCC(N1)C(=O)OCC(C)(C)C2; 18.9
C[C@@H](NC(=O)c1ncnc(N)c1Cl)c1ncc(C(=O)Nc2cc(C(F)(F)F)c(Cl)cn2)s1 + CCn1c(-c2cc(N3CCN(C)CC3)cnc2C(C)OC)c2c3cc(ccc31)-c1csc(n1)CC(NC(=O)C1CC1C)C(=O)N1CCCC(N1)C(=O)OCC(C)(C)C2; 21.4

The recorded viability, T/C for entry C[C@@H](NC(=O)c1ncnc(N)c1Cl)c1ncc(C(=O)Nc2cc(C(F)(F)F)c(Cl)cn2)s1 + CCn1c(-c2cccnc2C(C)OC)c2c3cc(ccc31)N1CCOC(CC(NC(=O)C(C(C)C)N(C)C(=O)C3(F)CCN(C(=O)C#CC(C)(C)N(C)C)CC3)C(=O)N3CCCC(N3)C(=O)OCC(C)(C)C2)C1 equals 21.5

Lab note: measured viability, T/C of O=C(c1ccc(F)c(F)c1Nc1ccc(I)cc1F)N1CC(O)([C@@H]2CCCCN2)C1 + CCn1c(-c2cc(N3CCN(C)CC3)cnc2C(C)OC)c2c3cc(ccc31)-c1csc(n1)CC(NC(=O)C1CC1C)C(=O)N1CCCC(N1)C(=O)OCC(C)(C)C2 was 15.7

Query Nc1ccn(C2OC(CO)C(O)C2(F)F)c(=O)n1 (stereo not drawn) + CCn1c(-c2cccnc2C(C)OC)c2c3cc(ccc31)N1CCOC(CC(NC(=O)C(C(C)C)N(C)C(=O)C3(F)CCN(C(=O)C#CC(C)(C)N(C)C)CC3)C(=O)N3CCCC(N3)C(=O)OCC(C)(C)C2)C1 yields viability, T/C of 12.5
